Target: EBP (Homo sapiens, UniProt Q15125)
Construct: HEK293T cells were utilized as the source of EBP enzyme; endogenous in cells
Sequence (Q15125 whole entry): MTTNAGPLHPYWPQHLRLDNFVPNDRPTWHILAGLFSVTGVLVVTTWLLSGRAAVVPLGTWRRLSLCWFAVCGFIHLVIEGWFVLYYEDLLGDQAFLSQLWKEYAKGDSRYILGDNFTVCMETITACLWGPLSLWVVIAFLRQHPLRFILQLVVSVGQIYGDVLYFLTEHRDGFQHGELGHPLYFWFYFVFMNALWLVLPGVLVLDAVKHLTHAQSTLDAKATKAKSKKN
Assay: EBP Functional Assay (EBP immunoaffinity LC-MS assay)
Conditions: HEK293T cells as source of EBP enzyme; substrate zymosterol-d5, 37° C. for 4 h; percent conversion to dehydrolathosterol-d5 by LC-APCI MRM MS
pIC50: −log10 of the molar value.
compounds and their reported pIC50

// known answers, use as guide
COCCN(C)C1CCC2(CCN(S(=O)(=O)c3cc(C)cnc3OC)CC2)C1 (stereo not shown) :: 6.60 to 7.00
O=S(=O)(c1cc(F)cc(F)c1)N1CCC2(CC1)CC(N1CC3(COC3)C1)CO2 (racemic) :: 6.60 to 7.00
Cc1cc(OC(F)(F)F)ccc1S(=O)(=O)N1CCC2(CC1)CC(N1CCOCC1)CO2 (stereo not shown) :: 5.82 to 6.60
CC(C)Oc1ccc(S(=O)(=O)N2CCC3(CCC(N4CC5(COC5)C4)C3)CC2)cn1 (stereo not shown) :: 6.60 to 7.00

[Q] Look up pIC50 for this compound: Cc1cc(C(F)(F)F)ccc1S(=O)(=O)N1CCC2(CC1)CC(N1CCOCC1)CO2 (stereo not shown)
[A] 5.82 to 6.60

[Q] Please report the recorded pIC50 for Cc1ccc(S(=O)(=O)N2CCC3(CC2)C[C@@H](N2CC(O)C2)CO3)c(Cl)c1 (single isomer, unassigned) [Example 53a] .
[A] > 7.00

[Q] Data request, read-out pIC50, for N#Cc1cc(F)cc(S(=O)(=O)N2CCC3(CCC(N4CC5(COC5)C4)C3)CC2)c1 (stereo not shown)
[A] 6.60 to 7.00

[Q] State the recorded pIC50 for this entry: COc1ccc(S(=O)(=O)N2CCC3(CC2)CC(N2CCOCC2)CO3)c(C)n1 (stereo not shown)
[A] 5.82 to 6.60

[Q] What pIC50 value was documented for this compound, Cc1nc(C(F)(F)F)ccc1S(=O)(=O)N1CCC2(CC1)CC(NC1CC3(COC3)C1)CO2 (stereo not shown) ?
[A] 5.82 to 6.60

[Q] Name the recorded pIC50 for COc1nccc(S(=O)(=O)N2CCC3(CCC(N4CCOCC4)C3)CC2)c1F (stereo not shown) .
[A] > 7.00

[Q] Please give the measured pIC50 for this compound: COC1CN(C2COC3(CCN(S(=O)(=O)c4cc(C5CC5)nn4C)CC3)C2)C1 (stereo not shown)
[A] 5.82 to 6.60

[Q] Param item = N#Cc1ccc(F)c(S(=O)(=O)N2CCC3(CC2)CC(N2CC4(COC4)C2)CO3)c1 (stereo not shown) ; retrieve measured pIC50.
[A] 5.82 to 6.60

[Q] Any idea what pIC50 was measured for Cc1nc(OC(F)F)ccc1S(=O)(=O)N1CCC2(CC1)CC(N1CC3(COC3)C1)C2 ?
[A] > 7.00

[Q] Query: pIC50; subject: N#Cc1ccc(F)c(S(=O)(=O)N2CCC3(CC2)CC(NC2CCC(F)(F)CC2)CO3)c1 (stereo not shown)
[A] 6.60 to 7.00

[Q] Recorded pIC50 of O=S(=O)(c1ccc(OC2CC2)cn1)N1CCC2(CCC(N3CCOCC3)C2)CC1 (stereo not shown) , please.
[A] 5.82 to 6.60

[Q] What does the record list as pIC50 for O=S(=O)(c1ccc(OC(F)F)cc1)N1CCC2(CCC(N3C[C@@H]4C[C@H]3CO4)C2)CC1 (stereo partly shown) ?
[A] 6.60 to 7.00

----------
Molecular target: EBP (Homo sapiens)
Construct: HEK293T cells were utilized as the source of EBP enzyme; endogenous in cells
Assay: EBP Functional Assay (EBP immunoaffinity LC-MS assay)
Conditions: HEK293T cells as source of EBP enzyme; substrate zymosterol-d5, 37° C. for 4 h; percent conversion to dehydrolathosterol-d5 by LC-APCI MRM MS
Quick list: IC50 per entry.

Please review the entries below; each comes with its answer.
Cn1nc(C(F)F)cc1S(=O)(=O)N1CCC2(CC1)CC(N1CC3(COC3)C1)C2 :: < 100 nM
O=S(=O)(c1ccc(OC(F)F)cc1)N1CCC2(CC1)CC(N1CCC3(CCOC3)C1)CO2 (centres unmarked) :: 250 to 1500 nM
COCCN(C)C1CCC2(CCN(S(=O)(=O)c3ccc(OC)nc3C)CC2)C1 (centres unmarked) :: < 100 nM
Cc1cc(C)c(S(=O)(=O)N2CCC3(CC2)CC(N2CCC4(CCOC4)C2)CO3)cn1 (centres unmarked) :: 250 to 1500 nM
O=S(=O)(c1ccc2ccoc2c1)N1CCC2(CCC(N3CC4(COC4)C3)C2)CC1 (centres unmarked) :: 100 to 250 nM
N#Cc1cc(F)cc(S(=O)(=O)N2CCC3(CC[C@H](N4CC5(COC5)C4)C3)CC2)c1 (single isomer, unassigned) [Example 85b] :: < 100 nM

[Q] If you can, please state the reported IC50 value of Cc1cc(S(=O)(=O)N2CCC3(CC2)C[C@H](N2CC[C@@]4(CCOC4)C2)CO3)n(C)n1 (single isomer, unassigned) [Example 72a] .
[A] 100 to 250 nM

[Q] Endpoint output: IC50 of O=S(=O)(c1cnc2ccccc2c1)N1CCC2(CCC(N3CC4(COC4)C3)C2)CC1 (centres unmarked) . Value?
[A] < 100 nM

----------
Target: EBP (Homo sapiens)
Construct: HEK293T cells were utilized as the source of EBP enzyme; endogenous in cells
Assay: EBP Functional Assay (EBP immunoaffinity LC-MS assay)
Settings: HEK293T cells as source of EBP enzyme; substrate zymosterol-d5, 37° C. for 4 h; percent conversion to dehydrolathosterol-d5 by LC-APCI MRM MS
pIC50: −log10 of the molar value.
A collection of compounds and their measured pIC50

O=S(=O)(c1ccc(OC(F)F)cc1)N1CCC2(CCC(N3CCOCC3)C2)CC1 (stereo not shown) :: 6.60 to 7.00

[Q] State the recorded pIC50 for this entry: COc1cc(S(=O)(=O)N2CCC3(CCC(N4CCOCC4)C3)CC2)n(C)n1 (stereo not shown)
[A] > 7.00

[Q] Record request: pIC50 value, item N#Cc1cc(F)cc(S(=O)(=O)N2CCC3(CC[C@@H](N4CC5(COC5)C4)C3)CC2)c1 (single isomer, unassigned) [Example 85a]
[A] 6.60 to 7.00

[Q] So what's the measured pIC50 for this one? Cc1cc(S(=O)(=O)N2CCC3(CC[C@@H](N4CC5(COC5)C4)C3)CC2)n(C)n1 (single isomer, unassigned) [Example 68a]
[A] 6.60 to 7.00

----------
Recorded IC50 by entry
Biological target: EBP (Homo sapiens, UniProt Q15125)
Construct: HEK293T cells were utilized as the source of EBP enzyme; endogenous in cells; host or cells: HEK293T
Test: EBP Functional Assay (EBP immunoaffinity LC-MS assay)
Format: biochemical
Settings: HEK293T cells as source of EBP enzyme; substrate zymosterol-d5, 37° C. for 4 h; percent conversion to dehydrolathosterol-d5 by LC-APCI MRM MS

[Q] Which IC50 is listed for O=S(=O)(c1cc(C(F)F)nn1C1CC1)N1CCC2(CC1)CC(N1CC3(COC3)C1)C2 [Example 123] ?
[A] < 100 nM

[Q] Query: IC50; subject: N#Cc1ccc(S(=O)(=O)N2CCC3(CC2)CC(N2CC4(COC4)C2)CO3)c(Cl)c1 (stereo not shown) [Example 9]
[A] 250 to 1500 nM

[Q] # IC50 lookup, item CC1(O)CCN([C@@H]2COC3(CCN(S(=O)(=O)c4cc(C#N)ccc4F)CC3)C2)CC1 (single isomer, unassigned) [Example 141]
[A] 250 to 1500 nM

----------
Some compounds, each annotated with its measured IC50.
Target: EBP (Homo sapiens, UniProt Q15125)
Construct: HEK293T cells were utilized as the source of EBP enzyme; endogenous in cells
Experiment: EBP Functional Assay (EBP immunoaffinity LC-MS assay)
Conditions: HEK293T cells as source of EBP enzyme; substrate zymosterol-d5, 37° C. for 4 h; percent conversion to dehydrolathosterol-d5 by LC-APCI MRM MS

Please review the entries below; each comes with its answer.
COc1cc(S(=O)(=O)N2CCC3(CCC(N4CC5(COC5)C4)C3)CC2)ccn1 (stereo not shown) :: < 100 nM
Cc1occc1S(=O)(=O)N1CCC2(CCC(N3CC4(COC4)C3)C2)CC1 (stereo not shown) :: 250 to 1500 nM

From here, focus on the item given below.
[Q] Report IC50 for Cn1nc(C2CC2)cc1S(=O)(=O)N1CCC2(CC1)CC(NC1CCOCC1)C2 please.
[A] < 100 nM

----------
Target: EBP (Homo sapiens)
Construct: HEK293T cells were utilized as the source of EBP enzyme; endogenous in cells; host or cells: HEK293T
Assay: EBP Functional Assay (EBP immunoaffinity LC-MS assay)
Format: biochemical
Details: HEK293T cells as source of EBP enzyme; substrate zymosterol-d5, 37° C. for 4 h; percent conversion to dehydrolathosterol-d5 by LC-APCI MRM MS
pIC50: −log10 of the molar value.
reported.endpoint: pIC50

[Q] May I ask what pIC50 has been recorded for O=S(=O)(c1ccc(OC(F)(F)F)cn1)N1CCC2(CCC(N3CC4(COC4)C3)C2)CC1 (stereo not shown) ?
[A] 5.82 to 6.60
